Tested on: 292921-168-R-J2-PDC complex spheroid growth;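 also: spheroids exposed to compounds for seven days after three days of growth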
Assay: Anticancer human tumor 292921-168-R-J2-PDC patient-derived pancreatic carcinoma cell line growth inhibition [AhR]
Condition summary: second compound 0.1 µM; first compound 0.00949 µM; hits give low values
I'd appreciate it if you could supply viability, T/C values for the items below.
# number only, unit % dropped from output

State, for 292921-168-R-J2-PDC complex spheroid growth, measured viability, T/C of the molecule listed here: CCc1c2c(nc3ccc(O)cc13)-c1cc3c(c(=O)n1C2)COC(=O)[C@]3(O)CC + Cc1ccccc1N=Nc1ccc(NC(=O)c2ccnn2C)c(C)c1
20

State, for 292921-168-R-J2-PDC complex spheroid growth, measured viability, T/C of the molecule listed here: O=C(C=Cn1cnc(-c2cc(C(F)(F)F)cc(C(F)(F)F)c2)n1)NNc1cnccn1 + Cc1ccccc1N=Nc1ccc(NC(=O)c2ccnn2C)c(C)c1
88.1

State, for 292921-168-R-J2-PDC complex spheroid growth, measured viability, T/C of the molecule listed here: CCN(c1cc(-c2ccc(CN3CCOCC3)cc2)cc(C(=O)NCc2c(C)cc(C)[nH]c2=O)c1C)C1CCOCC1 + Cc1cncc(-c2nc(NCCc3c[nH]c4ccccc34)c3ncn(C(C)C)c3n2)c1
93.8

State, for 292921-168-R-J2-PDC complex spheroid growth, measured viability, T/C of the molecule listed here: CCN(c1cc(-c2ccc(CN3CCOCC3)cc2)cc(C(=O)NCc2c(C)cc(C)[nH]c2=O)c1C)C1CCOCC1 + CC(CO)NC(=O)c1cc(-c2ccc(Cl)cc2)nn(-c2cnn(C)c2)c1=O
103

State, for 292921-168-R-J2-PDC complex spheroid growth, measured viability, T/C of the molecule listed here: CCN(c1cc(-c2ccc(CN3CCOCC3)cc2)cc(C(=O)NCc2c(C)cc(C)[nH]c2=O)c1C)C1CCOCC1 + Cc1ccccc1N=Nc1ccc(NC(=O)c2ccnn2C)c(C)c1
98.1

State, for 292921-168-R-J2-PDC complex spheroid growth, measured viability, T/C of the molecule listed here: O=C(C=Cn1cnc(-c2cc(C(F)(F)F)cc(C(F)(F)F)c2)n1)NNc1cnccn1 + Cc1cncc(-c2nc(NCCc3c[nH]c4ccccc34)c3ncn(C(C)C)c3n2)c1
90.8

State, for 292921-168-R-J2-PDC complex spheroid growth, measured viability, T/C of the molecule listed here: CC(C)CC(NC(=O)C(Cc1ccccc1)NC(=O)c1cnccn1)B(O)O (stereo not given) + Cc1ccccc1N=Nc1ccc(NC(=O)c2ccnn2C)c(C)c1
23.4

State, for 292921-168-R-J2-PDC complex spheroid growth, measured viability, T/C of the molecule listed here: CCc1c2c(nc3ccc(O)cc13)-c1cc3c(c(=O)n1C2)COC(=O)[C@]3(O)CC + CC(CO)NC(=O)c1cc(-c2ccc(Cl)cc2)nn(-c2cnn(C)c2)c1=O
20.9

State, for 292921-168-R-J2-PDC complex spheroid growth, measured viability, T/C of the molecule listed here: CC(C)CC(NC(=O)C(Cc1ccccc1)NC(=O)c1cnccn1)B(O)O (stereo not given) + Cc1cncc(-c2nc(NCCc3c[nH]c4ccccc34)c3ncn(C(C)C)c3n2)c1
51.3

State, for 292921-168-R-J2-PDC complex spheroid growth, measured viability, T/C of the molecule listed here: O=C(C=Cn1cnc(-c2cc(C(F)(F)F)cc(C(F)(F)F)c2)n1)NNc1cnccn1 + CC(CO)NC(=O)c1cc(-c2ccc(Cl)cc2)nn(-c2cnn(C)c2)c1=O
85.4

State, for 292921-168-R-J2-PDC complex spheroid growth, measured viability, T/C of the molecule listed here: CC(C)CC(NC(=O)C(Cc1ccccc1)NC(=O)c1cnccn1)B(O)O (stereo not given) + CC(CO)NC(=O)c1cc(-c2ccc(Cl)cc2)nn(-c2cnn(C)c2)c1=O
15.2

State, for 292921-168-R-J2-PDC complex spheroid growth, measured viability, T/C of the molecule listed here: Nc1ncn(C2CC(O)C(CO)S2)c(=O)n1 (stereo not given) + Cc1cncc(-c2nc(NCCc3c[nH]c4ccccc34)c3ncn(C(C)C)c3n2)c1
91.3

State, for 292921-168-R-J2-PDC complex spheroid growth, measured viability, T/C of the molecule listed here: Nc1ncn(C2CC(O)C(CO)S2)c(=O)n1 (stereo not given) + CC(CO)NC(=O)c1cc(-c2ccc(Cl)cc2)nn(-c2cnn(C)c2)c1=O
98.8

State, for 292921-168-R-J2-PDC complex spheroid growth, measured viability, T/C of the molecule listed here: Nc1ncn(C2CC(O)C(CO)S2)c(=O)n1 (stereo not given) + Cc1ccccc1N=Nc1ccc(NC(=O)c2ccnn2C)c(C)c1
86.3

State, for 292921-168-R-J2-PDC complex spheroid growth, measured viability, T/C of the molecule listed here: CCc1c2c(nc3ccc(O)cc13)-c1cc3c(c(=O)n1C2)COC(=O)[C@]3(O)CC + Cc1cncc(-c2nc(NCCc3c[nH]c4ccccc34)c3ncn(C(C)C)c3n2)c1
22.7
